System: HS 578T
procedure summary: cells
Format: cell-based, human
run conditions: Homo sapiens, Hs-578T, 48 h, read-out: IC50, cellular anti-proliferative assay
quantity kind: pIC50
# reply with the number alone; pIC50 is -log10 of concentration in mol/L

Record O=C(O)CCCc1ccc(N(CCCl)CCCl)cc1 [Chlorambucil, reference compound] , field pIC50: 3.72

For record CC(C)(C)c1cnc(CSc2cnc(NC(=O)Cc3ccc(N(CCCl)CCCl)cc3)s2)o1 the listed pIC50 is 6.83

* * *

Test system: RPMI-8226
procedure summary: cells
Type: cell-based, human
run conditions: Homo sapiens, RPMI-8226, 48 h, read-out: IC50, cellular anti-proliferative assay
For each record, write down the corresponding pIC50.
Units for pIC50: none; it is -log10 of a concentration expressed in mol/L.

Measured pIC50 of CC(C)(C)c1cnc(CSc2cnc(NC(=O)Cc3ccc(N(CCCl)CCCl)cc3)s2)o1 : 6.57

Recorded pIC50 (molecule O=C(O)CCCc1ccc(N(CCCl)CCCl)cc1 [Chlorambucil, reference compound] ): 4.12
